# IC50 annotations
- system-name: β5 (Homo sapiens, UniProt P20618+P28074)
- Construct: endogenous in cells; host or cells: MOLT-4
- protocol-summary: ProCISE proteasome subunit assay, β5
- Format: biochemical
- conditions: MOLT4 lysate Hu 1 h
reported-endpoint: IC50

> print(dat)
                              record.smiles                               system.name  reported.endpoint     value
1  COc1ccc(C[C@H](NC(=O)[C@@H](C)NC(=O)[C@@H]2CCc3[nH]ncc3C2)C(=O)N[C@@H](CC2CCCC2)C(=O)[C@@]2(C)CO2)cc1  β5 (Homo sapiens, UniProt P20618+P28074)               IC50   6.11 µM
2  COc1ccc(C[C@H](NC(=O)[C@@H](C)NC(=O)c2ccccn2)C(=O)N[C@@H](CC2CCCC2)C(=O)[C@@]2(C)CO2)cc1  β5 (Homo sapiens, UniProt P20618+P28074)               IC50   26.7 µM
3  COc1ccc(C[C@H](NC(=O)[C@@H]2CCC(=O)N2)C(=O)N[C@@H](Cc2ccccc2)C(=O)[C@@]2(C)CO2)cc1  β5 (Homo sapiens, UniProt P20618+P28074)               IC50   14.2 µM
4  COc1ccc(C[C@H](NC(=O)[C@H](C)NC(=O)c2cc(C)no2)C(=O)N[C@@H](CC2CCCC2)C(=O)[C@@]2(C)CO2)cc1  β5 (Homo sapiens, UniProt P20618+P28074)               IC50  0.429 µM
5  COc1ccc(C[C@H](NC(=O)[C@@H](C)NC(=O)C2=CCCC2)C(=O)N[C@@H](CC2CCCC2)C(=O)[C@@]2(C)CO2)cc1  β5 (Homo sapiens, UniProt P20618+P28074)               IC50   9.63 µM
6  COc1ccc(C[C@H](NC(=O)c2ccnc(N3CCOCC3)n2)C(=O)N[C@@H](Cc2ccccc2)C(=O)[C@@]2(C)CO2)cc1  β5 (Homo sapiens, UniProt P20618+P28074)               IC50   5.59 µM
7  COc1ccc(C[C@H](NC(=O)[C@H]2CC(=O)N2)C(=O)N[C@@H](Cc2ccccc2)C(=O)[C@@]2(C)CO2)cc1  β5 (Homo sapiens, UniProt P20618+P28074)               IC50   1.22 µM
8  COc1ccc(C[C@H](NC(=O)[C@H]2CCCC(=O)N2)C(=O)N[C@@H](Cc2ccccc2)C(=O)[C@@]2(C)CO2)cc1  β5 (Homo sapiens, UniProt P20618+P28074)               IC50   8.29 µM

====

- protocol-summary: Solubility pH 7
- Assay type: physicochemical
- conditions: pH 7, aqueous buffer
# solubility annotations
reported-endpoint: solubility (µg/mL)

> print(dat)
                                   molecule  value
1  C[C@@H](NC(=O)CC(C)(C)O)C(=O)N[C@@H](Cc1ccc(S(C)(=O)=O)cc1)C(=O)N[C@@H](CC1CCCC1)C(=O)[C@H]1CO1 [Compound C-2055]   1970
2  CCOCC(=O)N[C@H](C)C(=O)N[C@@H](Cc1ccc(OC)cc1)C(=O)N[C@@H](CC1CCCC1)C(=O)[C@@]1(C)CO1 [Compound C-2021]    103
3  C[C@]1(C(=O)[C@H](CC2CCCC2)NC(=O)[C@H](CO)NC(=O)c2cccc(=O)[nH]2)CO1 [Compound C-3019]    639
4  COc1ccc(C[C@H](NC(=O)CNC(=O)C2=C(C)c3ccccc3C2)C(=O)N[C@@H](CC2CCCC2)C(=O)[C@@]2(C)CO2)cc1 [Compound C-2039]    1.7
5  COc1ccc(C[C@H](NC(=O)[C@H](C)NC(=O)Cc2cnc(N3CCCC3)s2)C(=O)N[C@@H](CC2=CCCC2)C(=O)[C@@]2(C)CO2)cc1 [Compound C-2069]   26.6
6  C[C@@H](NC(=O)CC(C)(C)O)C(=O)N[C@@H](Cc1ccc(S(C)(=O)=O)cc1)C(=O)N[C@@H](CC1CCCC1)C(=O)[C@@]1(C)CO1 [Compound C-2050]   6160
